- MEASUREMENT TARGET: T1, EsCas13d, nuclease-dead (Eubacterium siraeum, UniProt B0MS50, R295A;H300A;R849A;H854A)
- T1 sequence: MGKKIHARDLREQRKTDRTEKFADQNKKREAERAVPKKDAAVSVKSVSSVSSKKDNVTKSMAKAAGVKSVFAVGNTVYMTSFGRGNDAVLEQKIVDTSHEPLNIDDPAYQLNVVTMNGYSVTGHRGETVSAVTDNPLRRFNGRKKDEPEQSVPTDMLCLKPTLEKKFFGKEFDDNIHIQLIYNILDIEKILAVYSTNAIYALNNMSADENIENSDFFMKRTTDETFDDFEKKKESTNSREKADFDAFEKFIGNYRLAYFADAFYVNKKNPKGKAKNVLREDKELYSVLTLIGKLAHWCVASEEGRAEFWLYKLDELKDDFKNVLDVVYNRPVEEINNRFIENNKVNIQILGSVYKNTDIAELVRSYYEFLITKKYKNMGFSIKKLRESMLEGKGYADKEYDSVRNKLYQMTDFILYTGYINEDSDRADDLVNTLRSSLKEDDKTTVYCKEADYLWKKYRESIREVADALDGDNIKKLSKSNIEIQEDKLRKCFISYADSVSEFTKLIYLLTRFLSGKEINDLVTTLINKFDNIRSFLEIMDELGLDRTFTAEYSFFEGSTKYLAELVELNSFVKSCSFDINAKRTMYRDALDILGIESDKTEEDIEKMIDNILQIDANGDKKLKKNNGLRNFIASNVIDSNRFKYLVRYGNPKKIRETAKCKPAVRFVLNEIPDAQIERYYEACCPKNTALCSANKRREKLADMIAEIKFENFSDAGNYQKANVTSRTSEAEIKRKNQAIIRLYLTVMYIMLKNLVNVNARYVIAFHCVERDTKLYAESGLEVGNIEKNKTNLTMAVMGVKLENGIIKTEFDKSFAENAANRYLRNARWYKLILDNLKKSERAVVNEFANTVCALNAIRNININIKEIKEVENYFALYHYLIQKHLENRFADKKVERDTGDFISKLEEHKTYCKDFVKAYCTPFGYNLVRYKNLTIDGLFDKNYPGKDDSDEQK
- PROTOCOL TEXT: crRNA (strand 1, pre-loaded); Mg2+; 40 mM Tris-HCl pH 7.5, 150 mM NaCl, 6 mM MgCl2, 1 mM DTT, 0.1% Tween-20, 0.2 mg/ml BSA; 25 C; 10 min per concentration, then washed
- EXPERIMENTAL PARAMETERS: tags: His6-TwinStrep-SUMO cleaved; N-terminal SNAP kept (SNAP-Surface 488); label: 3' end held by stalled T7 RNA polymerase
Overview of reported pKd across a group of binders:
In textbook form, pKd equals minus log to base ten of the concentration in mol/L.

Past entries and their recorded results:
BINDER: target 1 MT 5'PFS AGG 3'PFS UCC (mixed) RNA 1: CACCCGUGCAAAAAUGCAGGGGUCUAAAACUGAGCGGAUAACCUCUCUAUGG RNA 2: GGGAAUGGAUCCACAUCUACGAAUUCAGGCCAUAGAGAGGUUAUCCGCUCAUCCAGAUCGGAAGAGCACACGU
pKd: 7.31
--
BINDER: target 1 insC 3' of 20,insA 3' of 2 (mixed) RNA 1: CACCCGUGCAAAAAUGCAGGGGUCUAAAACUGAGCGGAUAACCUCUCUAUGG RNA 2: GGGAAUGGAUCCACAUCUACGAAUUCGUACCACUAGAGAGGUUAUCCGCUCAACCGAGAUCGGAAGAGCACACGU
pKd: 8.00
--
BINDER: target 1 insA 3' of 13,insU 3' of 1 (mixed) RNA 1: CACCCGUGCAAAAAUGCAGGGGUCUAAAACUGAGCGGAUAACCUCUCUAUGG RNA 2: GGGAAUGGAUCCACAUCUACGAAUUCGUACCAUAGAGAGAGUUAUCCGCUCAUCCGAGAUCGGAAGAGCACACGU
pKd: 8.44
--
BINDER: target 2 MT 5'PFS GUA 3'PFS AGG (mixed) RNA 1: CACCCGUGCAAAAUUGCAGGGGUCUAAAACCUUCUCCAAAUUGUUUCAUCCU RNA 2: GGGAAUGGAUCCACAUCUACGAAUUCGUAAGGAUGAAACAAUUUGGAGAAGAGGAGAUCGGAAGAGCACACGU
pKd: 8.07
--
BINDER: target 1 MT 5'PFS UAG 3'PFS UUC (mixed) RNA 1: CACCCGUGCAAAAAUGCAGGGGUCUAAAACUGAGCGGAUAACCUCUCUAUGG RNA 2: GGGAAUGGAUCCACAUCUACGAAUUCUAGCCAUAGAGAGGUUAUCCGCUCAUUCAGAUCGGAAGAGCACACGU
pKd: 7.72
--
BINDER: target 1 G5U,U11C (mixed) RNA 1: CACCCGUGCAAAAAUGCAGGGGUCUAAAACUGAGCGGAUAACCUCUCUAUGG RNA 2: GGGAAUGGAUCCACAUCUACGAAUUCGUACCAUAGAGAGGCUAUCCUCUCACCGAGAUCGGAAGAGCACACGU
pKd: 7.21

Name the recorded pKd for target 1 MT 5'PFS UCC 3'PFS UAG (mixed) RNA 1: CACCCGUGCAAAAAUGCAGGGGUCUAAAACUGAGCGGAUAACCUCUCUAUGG RNA 2: GGGAAUGGAUCCACAUCUACGAAUUCUCCCCAUAGAGAGGUUAUCCGCUCAUAGAGAUCGGAAGAGCACACGU .
7.31

Moving on to target 3 G4A,C6U (mixed) RNA 1: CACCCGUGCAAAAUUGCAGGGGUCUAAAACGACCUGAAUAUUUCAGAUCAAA RNA 2: GGGAAUGGAUCCACAUCUACGAAUUCGUUUUUGAUCUGAAAUAUUUAAGUCUGCAGAUCGGAAGAGCACACGU
7.81

Moving on to target 1 U11C,A18C (mixed) RNA 1: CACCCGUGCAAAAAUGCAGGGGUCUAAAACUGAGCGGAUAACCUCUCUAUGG RNA 2: GGGAAUGGAUCCACAUCUACGAAUUCGUACCAUCGAGAGGCUAUCCGCUCACCGAGAUCGGAAGAGCACACGU
7.12

Moving on to target 1 insG 3' of 18,insA 3' of 3 (mixed) RNA 1: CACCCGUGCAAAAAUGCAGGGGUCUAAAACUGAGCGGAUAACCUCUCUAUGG RNA 2: GGGAAUGGAUCCACAUCUACGAAUUCGUACCAUAGGAGAGGUUAUCCGCUACACCGAGAUCGGAAGAGCACACGU
7.31

Moving on to target 1 C6U,U10G (mixed) RNA 1: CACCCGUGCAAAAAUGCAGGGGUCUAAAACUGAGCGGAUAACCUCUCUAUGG RNA 2: GGGAAUGGAUCCACAUCUACGAAUUCGUACCAUAGAGAGGUGAUCUGCUCACCGAGAUCGGAAGAGCACACGU
7.80

Moving on to target 3 U22C (mixed) RNA 1: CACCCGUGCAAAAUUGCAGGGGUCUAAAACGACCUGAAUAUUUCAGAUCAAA RNA 2: GGGAAUGGAUCCACAUCUACGAAUUCGUUCUUGAUCUGAAAUAUUCAGGUCUGCAGAUCGGAAGAGCACACGU
7.86

Moving on to target 2 MT 5'PFS GCG 3'PFS CGA (mixed) RNA 1: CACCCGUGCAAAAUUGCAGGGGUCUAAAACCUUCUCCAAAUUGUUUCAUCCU RNA 2: GGGAAUGGAUCCACAUCUACGAAUUCGCGAGGAUGAAACAAUUUGGAGAAGCGAAGAUCGGAAGAGCACACGU
7.52

Moving on to target 1 A9G,G15A (mixed) RNA 1: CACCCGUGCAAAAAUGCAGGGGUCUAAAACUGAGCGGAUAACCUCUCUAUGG RNA 2: GGGAAUGGAUCCACAUCUACGAAUUCGUACCAUAGAAAGGUUGUCCGCUCACCGAGAUCGGAAGAGCACACGU
7.94

Moving on to target 1 insU 3' of 1,insC 3' of 1 (mixed) RNA 1: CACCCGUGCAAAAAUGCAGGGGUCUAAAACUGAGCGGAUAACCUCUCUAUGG RNA 2: GGGAAUGGAUCCACAUCUACGAAUUCGUACCAUAGAGAGGUUAUCCGCUCAUCCCGAGAUCGGAAGAGCACACGU
7.94
